Provide the recorded % Activity for the entries that follow.
target: androgen receptor (adenovirus AdEasy+rAR in L929 cells) (Rattus norvegicus); construct: expressed in transfected cells; assay: L929 Androgen Receptor Functional Assay, Adenovirus Transduction; assay type: cell-based; conditions: L929 agonist testing; 3000 nM
Give bare numbers, in %.

- MOLECULE: "CCCCSCC(C)(O)c1cc2cc([N+](=O)[O-])c(C(F)(F)F)cc2[nH]1 (stereo not shown)"
  MEASURE_UNIT: "%"
  % Activity: 1
- MOLECULE: "CC(O)(Sc1ccc(N)cc1)c1cc2cc([N+](=O)[O-])c(C(F)(F)F)cc2[nH]1 (racemic)"
  MEASURE_UNIT: "%"
  % Activity: "−4"

For each of the molecules below, state % Activity.
1. CCSCC(C)(O)c1cc2cc(C#N)c(C(F)(F)F)cc2n1C (stereo not shown)
2. CN(C)c1ccc(SCC(C)(O)c2cc3cc(Cl)c(C(F)(F)F)cc3[nH]2)cc1 (stereo not shown)
3. CC[S+]([O-])CC(O)c1cc2cc([N+](=O)[O-])c(C(F)(F)F)cc2[nH]1 (mixture of isomers)
4. CC(O)(CCS(C)(=O)=O)c1cc2cc([N+](=O)[O-])c(C(F)(F)F)cc2[nH]1 (stereo not shown)
5. CC(O)(CS(=O)(=O)c1ccc(O)cc1)c1cc2cc(Cl)c(C(F)(F)F)cc2[nH]1 (stereo not shown)

1. 2
2. −4
3. 2
4. 2
5. −4

For every item below, please supply its % Activity.
1. CC(C)CSCC(C)(O)c1cc2cc([N+](=O)[O-])c(C(F)(F)F)cc2[nH]1 (racemic)
2. CCCSCC(C)(O)c1cc2cc(Cl)c(C(F)(F)F)cc2[nH]1 (racemic)
3. CCSCC(C)(OC)c1cc2cc(C#N)c(C(F)(F)F)cc2n1C (stereo not shown)
4. CCSCC(C)(O)c1cc2cc([N+](=O)[O-])cc(C(F)(F)F)c2[nH]1 (stereo not shown)
5. CCSCC(C)(O)c1cc2cc(F)c(Cl)cc2[nH]1 (racemic)
6. CC(O)(CS(=O)(=O)CC(F)(F)F)c1cc2cc([N+](=O)[O-])c(C(F)(F)F)cc2[nH]1 (racemic)
7. CCSCC(C)(O)c1cc2cc([N+](=O)[O-])c(C(F)(F)F)cc2n1S(C)(=O)=O (stereo not shown)

1. 2
2. 13
3. 3
4. −3
5. 5
6. 1
7. 0

----------
Target: androgen receptor (rat ventral prostate cytosol) (Rattus norvegicus)
Construct: from tissue; host or cells: ventral prostate of castrated male Sprague Dawley or Wistar rats, cytosol
Sequence (P15207 whole entry S389L): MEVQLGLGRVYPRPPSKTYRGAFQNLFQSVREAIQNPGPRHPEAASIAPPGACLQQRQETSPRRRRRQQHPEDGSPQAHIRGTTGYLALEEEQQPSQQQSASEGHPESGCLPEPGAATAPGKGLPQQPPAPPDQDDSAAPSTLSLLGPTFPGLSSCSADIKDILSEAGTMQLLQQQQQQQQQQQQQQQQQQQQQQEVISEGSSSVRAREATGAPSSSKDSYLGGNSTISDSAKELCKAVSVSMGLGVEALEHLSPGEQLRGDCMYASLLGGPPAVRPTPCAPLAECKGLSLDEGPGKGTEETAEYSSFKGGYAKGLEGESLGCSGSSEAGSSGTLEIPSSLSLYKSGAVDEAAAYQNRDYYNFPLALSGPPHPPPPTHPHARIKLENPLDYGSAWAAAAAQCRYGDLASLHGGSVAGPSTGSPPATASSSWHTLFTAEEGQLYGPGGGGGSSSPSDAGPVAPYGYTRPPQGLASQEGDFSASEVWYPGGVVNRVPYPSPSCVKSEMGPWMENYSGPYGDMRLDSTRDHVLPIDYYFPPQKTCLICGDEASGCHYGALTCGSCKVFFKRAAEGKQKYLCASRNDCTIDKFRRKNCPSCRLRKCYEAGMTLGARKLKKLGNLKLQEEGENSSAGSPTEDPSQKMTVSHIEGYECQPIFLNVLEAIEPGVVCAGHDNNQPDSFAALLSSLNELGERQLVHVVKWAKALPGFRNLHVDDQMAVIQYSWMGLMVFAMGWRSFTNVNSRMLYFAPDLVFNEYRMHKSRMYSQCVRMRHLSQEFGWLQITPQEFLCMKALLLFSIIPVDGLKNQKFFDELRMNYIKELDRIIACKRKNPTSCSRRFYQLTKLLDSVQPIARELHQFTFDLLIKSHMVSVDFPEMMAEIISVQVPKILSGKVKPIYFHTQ
Test: Androgen Receptor Binding Using Rat Ventral Prostate Cytosol
Settings: rat cytosol; read-out: IC50
Description: The assay was run on a 96 well plate with each well filled with a total reaction volume 150 μL, of a solution containing 5 pmol androgen receptor LBD (Panvera) or 30 μL of freshly prepared rat cytosol, 0.5 nM [^3H] […] On day two, to each well was then added 20 μL human γ-globulin (ICN 823102), prepared at 25 mg/ml in TE pH 8.0, and 55 μL 40% polyethylene glycol 8000 (JT Baker U222-08), prepared in TE pH 8.0. […] The plate wells were then counted on a TopCount (Packard). […]
READOUT: IC50 (µM)
Answers are plain numbers, in µM.

- COMPOUND: "Cc1ccc(CN2CCC(O)(c3cc4cc([N+](=O)[O-])c(C(F)(F)F)cc4[nH]3)CC2)cc1 [compound 27]"
  TARGET_SYSTEM: "androgen receptor (rat ventral prostate cytosol) (Rattus norvegicus)"
  IC50 / µM: 3.1
- COMPOUND: "COc1ccc(CN2CCC(O)(c3cc4cc(Cl)c(C(F)(F)F)cc4[nH]3)CC2)cc1"
  TARGET_SYSTEM: "androgen receptor (rat ventral prostate cytosol) (Rattus norvegicus)"
  IC50 / µM: 4.2
- COMPOUND: "Cc1ccc(CN2CCC(O)(c3cc4cc(Cl)c(C(F)(F)F)cc4[nH]3)CC2)cc1"
  TARGET_SYSTEM: "androgen receptor (rat ventral prostate cytosol) (Rattus norvegicus)"
  IC50 / µM: 4.1
- COMPOUND: "COc1cccc(CN2CCC(O)(c3cc4cc([N+](=O)[O-])c(C(F)(F)F)cc4[nH]3)CC2)c1 [compound 38]"
  TARGET_SYSTEM: "androgen receptor (rat ventral prostate cytosol) (Rattus norvegicus)"
  IC50 / µM: 8.8
- COMPOUND: "CC(O)(Sc1ccc(Cl)c(Cl)c1)c1cc2cc([N+](=O)[O-])c(C(F)(F)F)cc2[nH]1 (racemic)"
  TARGET_SYSTEM: "androgen receptor (rat ventral prostate cytosol) (Rattus norvegicus)"
  IC50 / µM: 0.67
- COMPOUND: "OC1(c2cc3cc(Cl)c(C(F)(F)F)cc3[nH]2)CCN(Cc2ccc(C(F)(F)F)cc2)CC1"
  TARGET_SYSTEM: "androgen receptor (rat ventral prostate cytosol) (Rattus norvegicus)"
  IC50 / µM: 29
- COMPOUND: "CS(=O)(=O)c1ccc(CN2CCC(O)(c3cc4cc(Cl)c(C(F)(F)F)cc4[nH]3)CC2)cc1"
  TARGET_SYSTEM: "androgen receptor (rat ventral prostate cytosol) (Rattus norvegicus)"
  IC50 / µM: 5.7

Below: the item to evaluate.
Could you share which IC50 value was measured for O=[N+]([O-])c1cc2cc(C3(O)CCN(Cc4ccc(Cl)c(Cl)c4)CC3)[nH]c2cc1C(F)(F)F ? 9.1

Values compiled from patent US8394971B2.
